Test: Toxicokinetics of racemic ketoconazole in another 28-day dog study (b)
Conditions: female, beagle, dog, plasma, po, 10 mg/kg, Cmax, dogs, study b, powder, 10 mg/kg oral, day 28, F
readout-name: Cmax (ng/mL)

CC(=O)N1CCN(c2ccc(OCC3COC(Cn4ccnc4)(c4ccc(Cl)cc4Cl)O3)cc2)CC1 (racemic) [Racemic ketoconazole]	7520

----------
Assay: Toxicokinetics in the 28 day dog study of DIO-902 (with racemic ketoconazole group a);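 note: beagle dogs dosed orally once daily within a 28-day GLP study, 3 animals per sex per group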
Conditions: male, beagle, plasma, po, 20 mg/kg, Drug concentration in plasma, dogs, 20 mg/kg oral, day 28, M, 4 h
readout-name: concentration at 4 h (ng/mL)

CC(=O)N1CCN(c2ccc(OC[C@@H]3CO[C@@](Cn4ccnc4)(c4ccc(Cl)cc4Cl)O3)cc2)CC1	8170
